Tested on: M14
test: NCI tumour cell line growth inhibition, 48 h
Calls of active or inactive are those of the source. Rule as the data show it: active = GI50 up to about 1.1 µM and inactive = higher.
measured_endpoint: GI50

C=C(C)C12OC1[C@@]1(C)C(=CC2=O)CCC(O)[C@@H]1C (stereo partly drawn): 3.72 µM (inactive)
Cc1ncc(CCl)c(CCl)c1O: > 100 µM (inactive)

Now for a further molecule.
What value of measured GI50 is listed for "Cc1cnc2c(c1)C(=O)N(c1ccc(Br)cc1)S2(=O)=O" ?
> 100 µM (inactive)

###

Test system: SN12C
test: NCI tumour cell line growth inhibition, 48 h
Calls of active or inactive are those of the source. Rule as the data show it: active = GI50 up to about 1.1 µM and inactive = higher.
measured_endpoint: GI50

# example entries with known answers
CN(C)Cc1cc(C(=O)/C=C/c2ccc(Br)cc2)cc(CN(C)C)c1O: 2.84 µM (inactive)
CC1=C(/C=C/C(=O)O)C(C)(C)CCC1: > 100 µM (inactive)
COCNC(=NC#N)NCOC: > 100 µM (inactive)

Now for a further compound.
What value of measured GI50 is listed for CC(C(=O)c1ccc(Cl)cc1)C1OC(=O)C(Cl)=C1Cl (configuration not stated) ?
24.6 µM (inactive)

###

System: NCI-H522
test: NCI tumour cell line growth inhibition, 48 h
Calls of active or inactive are those of the source. Cut-off read from the data, not from the text of the source: active = GI50 up to about 1.1 µM and inactive = higher.
We begin with a simple list: items and their reported GI50.

# example entries with known answers
CC1=CCC([C@@](C)(O)CCCC(C)(C)N=C=S)CC1 (stereo not given in full): 17.3 µM (inactive)
c1ccc(CNC2CC(NCc3ccccn3)CC(NCc3ccccn3)C2)nc1 (stereo not given): 2.62 µM (inactive)
O=Cc1ccccc1B(O)O: 22.9 µM (inactive)
CC[C@H]1C=CCC[C@@]2(C[C@@H]3CC[C@H]4[C@@H](C(=O)OCCCCCCCCCCCCCCCC(=O)N(CCCNC(C)=O)C[C@H](CCNC(C)=O)OC(C)=O)[C@@]5(CCC[C@@H](C)O5)NC(=[N+]34)N2)O1: 1.24 µM (inactive)

What value of measured GI50 is listed for "O=[N+]([O-])c1ccc(CSc2nncc3[nH]cnc23)cc1" ?
> 100 µM (inactive)

###

Test system: CCRF-CEM
test: NCI tumour cell line growth inhibition, 48 h
Calls of active or inactive are those of the source. Rule as the data show it: active = GI50 up to about 1.1 µM and inactive = higher.
measured_endpoint: GI50

CCOP(=O)(OCC)C(F)(F)c1ccc(CC(NC(=O)OC(C)(C)C)C(=O)O)cc1 (centres undefined): > 10 µM (inactive)

What value of measured GI50 is listed for C/C(=N\N)C(CN1CCOCC1)C(c1ccccc1)c1c(O)c2ccccc2oc1=O (centres undefined) ?
23.3 µM (inactive)

What value of measured GI50 is listed for "N#Cc1c(N)oc(-c2cccc([N+](=O)[O-])c2)c1C#N" ?
27 µM (inactive)

###

Tested on: MOLT-4
test: NCI tumour cell line growth inhibition, 48 h
Calls of active or inactive are those of the source. Rule as the data show it: active = GI50 up to about 1.1 µM and inactive = higher.
The reply should name one outcome from active, inactive

Some solved cases for reference:
C=C(C)C12OC1[C@@]1(C)C(=CC2=O)CCC(O)[C@@H]1C (some centres not stated): active
COC1C(OC(N)=O)C(O)C(Oc2ccc3c(O)c(NC(=O)c4ccc(O)c(CC=C(C)C)c4)c(=O)oc3c2C)OC1(C)C (configuration not stated): inactive
CN(C)CCNC(=O)c1cccc2c(NC(CS)C(=O)O)c3ccccc3[n+](C)c12 (configuration not stated): inactive
CCN(CC)C(=S)SS(=O)(=O)c1ccccc1[N+](=O)[O-]: active
Cc1ccc(S(=O)(=O)N(CC(O)COc2ccccc2)c2ccc(F)cc2F)cc1 (configuration not stated): inactive
O=C(c1ccccc1)C1N=NCC1c1ccc([N+](=O)[O-])cc1 (configuration not stated): inactive
Cc1cc(C#N)c(Nc2ccccc2[N+](=O)[O-])s1: inactive
COc1ccc(/N=N/c2c(-c3ccccc3)nn(C(=O)CC(=O)Nc3ccc(OC)cc3)c2-c2ccccc2)cc1: inactive

Lab log entry: FC(F)(F)c1cccc(C2SCc3nc4ccccc4n32)c1 (configuration not stated) — outcome as called in the assay?
inactive

Lab log entry: "CCOP(=O)(OCC)/C(C#N)=C/c1cn(C)cn1" — outcome as called in the assay?
inactive

Lab log entry: "O=C1N[C@H](Cc2c[nH]cn2)C(=O)N2CCC[C@@H]12" — outcome as called in the assay?
inactive

Lab log entry: "CC1(CO)COC(C)(C)OC1" — outcome as called in the assay?
inactive

Lab log entry: "CC(C)SC(=S)Sc1c(Cl)c(Cl)nc(Cl)c1Cl" — outcome as called in the assay?
inactive

Lab log entry: "O=C1OC(=O)C([Se]c2ccccc2)=C1[Se]c1ccccc1" — outcome as called in the assay?
inactive

Lab log entry: "COC1=CC(=O)c2c(CCNC(=O)OCc3ccccc3)n[nH]c2C1=O" — outcome as called in the assay?
inactive

Lab log entry: "O=C(C/C(=N/O)c1cc(-c2ccccc2)no1)c1ccccc1" — outcome as called in the assay?
inactive

Lab log entry: "Cc1c(-c2c(C)c3ccccc3n2S(=O)(=O)c2ccccc2)n(S(=O)(=O)c2ccccc2)c2ccccc12" — outcome as called in the assay?
inactive

Lab log entry: COC(=O)C1(Cc2ccc(C)cc2)Cc2c(C)cccc2C1=O (configuration not stated) — outcome as called in the assay?
inactive

Lab log entry: "OCSc1nn(CO)c(=S)s1" — outcome as called in the assay?
inactive

Lab log entry: "CN1c2ccccc2C(=O)NC12CCNCC2" — outcome as called in the assay?
inactive

Lab log entry: O=C1CC(c2cccc(Cl)c2)Nc2ccc(N3CCCC3)cc21 (configuration not stated) — outcome as called in the assay?
active

Lab log entry: COc1cc2c(cc1OC(=O)CC(C)O)C1C(OC2=O)C(OC(C)=O)C=C2CCN(C)[C@H]21 (some centres not stated) — outcome as called in the assay?
inactive
